system: Staphylococcus aureus; test: Inhibition of Staphylococcus aureus MurG assessed as residual activity of enzyme at 2 mM after 30 mins
Observation type: Activity (%)

CCCCCCCCCCCCCCCC(=O)O[C@H]1CN(CCCCCn2ccc(=O)[nH]c2=O)[C@@H](CO)C(=O)N[C@@H]1CO    100
CCCCCCCCCCCCCCCC(=O)O[C@H]1CN(CCCCCn2ccc(=O)[nH]c2=O)[C@@H](COCc2ccccc2)C(=O)N[C@@H]1CO[Si](c1ccccc1)(c1ccccc1)C(C)(C)C    100
CCCCCCCCCCCCCCCC(=O)O[C@H]1CN(CCCCCn2ccc(=O)[nH]c2=O)[C@@H](CO)C(=O)N[C@@H]1CO[Si](c1ccccc1)(c1ccccc1)C(C)(C)C    66
CCCCCCCCCCCCCCCC(=O)O[C@H]1CN(CCCCCn2ccc(=O)[nH]c2=O)[C@@H](CO[C@@H]2O[C@H](CN=[N+]=[N-])[C@H]3OC(CC)(CC)O[C@@H]23)C(=O)N[C@@H]1CO[Si](c1ccccc1)(c1ccccc1)C(C)(C)C    100
CCCCCCCCCCCCCCCC(=O)O[C@H]1CN(C)[C@@H](CO[C@@H]2O[C@H](CN)[C@@H](O)[C@H]2O)C(=O)N[C@@H]1CO    100
CCCCCCCCCCCCCCCC(=O)O[C@H]1CN(CCCCCn2ccc(=O)[nH]c2=O)[C@@H](CO[C@@H]2O[C@H](CN=[N+]=[N-])[C@H]3OC(CC)(CC)O[C@@H]23)C(=O)N[C@@H]1CO[C@@H]1O[C@H](CN=[N+]=[N-])[C@H]2OC(CC)(CC)O[C@@H]12    87

Ref: ChEMBL document CHEMBL1770048
